Hey, just so you know, these numbers are from patent US11667602B2.

Assay: Human Plasma Protein Binding (Test B)
Type: in vitro ADME
Conditions: fraction unbound (fu)
Could you please report measured Test B Human Plasma Protein Binding (% free) for the items listed next?
The reply should contain only the number, in % free.

Task item: May I ask what Test B Human Plasma Protein Binding (% free) has been recorded for COc1cc(F)c(-c2ccc(C(=O)O)c(F)c2)cc1C(=O)N[C@@H]1[C@H]2CC[C@H](C2)[C@@H]1C(=O)Nc1cccc(S(=O)(=O)C(F)(F)F)c1 [Example 236] ?
Reply: 0.50

Task item: Cool, now COc1cc(C(F)F)c(O[C@H]2CC[C@@](C)(C(=O)O)CC2)cc1C(=O)N[C@@H]1[C@H]2CC[C@H](C2)[C@@H]1C(=O)NCC1(C)CCC1 [Example 373]
Reply: 3.9

Task item: Cool, now COc1cc(F)c(O[C@H]2CC[C@@H](C(=O)O)CC2)cc1C(=O)N[C@@H]1[C@H]2CC[C@H](C2)[C@@H]1C(=O)Nc1ccc(C(F)F)cc1 [Example 181]
Reply: 2.3

Task item: Cool, now CCCCNC(=O)[C@H]1[C@@H]2CC[C@@H](C2)[C@H]1NC(=O)c1cc(O[C@H]2CC[C@@](C)(C(=O)O)CC2)c(C#N)cc1OC [Example 91]
Reply: 5.9

====

Assay: Human Plasma Protein Binding (Test B)
Type: in vitro ADME
Conditions: fraction unbound (fu)
Recorded endpoint: Test B Human Plasma Protein Binding (% free)
The reply should contain only the number, in % free.

Task item: May I ask what Test B Human Plasma Protein Binding (% free) has been recorded for COc1cc(C)c(O[C@H]2CC[C@@H](C(=O)O)CC2)cc1C(=O)N[C@@H]1[C@H]2CC[C@H](C2)[C@@H]1C(=O)Nc1cccc(S(=O)(=O)C(F)(F)F)c1 ?
Reply: 0.76

Task item: Cool, now COc1cc(F)c(O[C@H]2CC[C@@H](C(=O)O)CC2)cc1C(=O)N[C@@H]1CC(F)(F)C[C@@H]1C(=O)Nc1ccc(F)c(C(F)(F)F)c1 (racemic)
Reply: 1.3

Task item: Cool, now COc1cc(C#N)c(O[C@H]2CC[C@@](C)(C(=O)O)CC2)cc1C(=O)N[C@@H]1[C@H]2CC[C@H](C2)[C@@H]1C(=O)NCC1(F)CCCC1
Reply: 12

Task item: Cool, now COc1cc(F)c(O[C@H]2CC[C@@H](C(=O)O)CC2)cc1C(=O)N[C@@H]1[C@H]2CC[C@H](C2)[C@@H]1C(=O)Nc1ccc(F)c(OC(F)(F)F)c1
Reply: 0.55

Task item: Cool, now COc1cc(F)c(-c2ccc(CC(=O)O)cc2)cc1C(=O)N[C@@H]1CCC[C@@H]1C(=O)Nc1cccc(S(=O)(=O)C(F)(F)F)c1
Reply: 0.67

Task item: Cool, now COc1cc(C#N)c(O[C@H]2CC[C@@](C)(C(=O)O)CC2)cc1C(=O)N[C@@H]1CCC[C@@H]1C(=O)NCC1(C)CCC1
Reply: 15

Task item: Cool, now COc1cc(C#N)c(O[C@H]2CC[C@@](C)(C(=O)O)CC2)cc1C(=O)N[C@@H]1[C@H]2CC[C@H](C2)[C@@H]1C(=O)NC1(C)CCC1
Reply: 14

Task item: Cool, now COc1cc(C#N)c(O[C@H]2CC[C@@](C)(C(=O)O)CC2)cc1C(=O)N[C@@H]1[C@H]2CC[C@H](C2)[C@@H]1C(=O)NCC1(CO)CCCC1
Reply: 17

Task item: Cool, now COc1cc(F)c(O[C@H]2CC[C@@H](C(=O)O)CC2)cc1C(=O)N[C@@H]1[C@H](C(=O)Nc2ccc(F)c(C(F)(F)F)c2)[C@@H]2CC[C@H]1O2
Reply: 1.9

Task item: Cool, now COc1cc(C#N)c(O[C@H]2CC[C@@](C)(C(=O)O)CC2)cc1C(=O)N[C@H]1C2CCC(CC2)[C@H]1C(=O)NCC1(C)CCC1 (relative stereo)
Reply: 3.2
